Cited source: patent US20230009626A1

Target Or System: HPK1 (MAP4K1) (Homo sapiens, UniProt Q92918)
Sequence (Q92918 whole entry): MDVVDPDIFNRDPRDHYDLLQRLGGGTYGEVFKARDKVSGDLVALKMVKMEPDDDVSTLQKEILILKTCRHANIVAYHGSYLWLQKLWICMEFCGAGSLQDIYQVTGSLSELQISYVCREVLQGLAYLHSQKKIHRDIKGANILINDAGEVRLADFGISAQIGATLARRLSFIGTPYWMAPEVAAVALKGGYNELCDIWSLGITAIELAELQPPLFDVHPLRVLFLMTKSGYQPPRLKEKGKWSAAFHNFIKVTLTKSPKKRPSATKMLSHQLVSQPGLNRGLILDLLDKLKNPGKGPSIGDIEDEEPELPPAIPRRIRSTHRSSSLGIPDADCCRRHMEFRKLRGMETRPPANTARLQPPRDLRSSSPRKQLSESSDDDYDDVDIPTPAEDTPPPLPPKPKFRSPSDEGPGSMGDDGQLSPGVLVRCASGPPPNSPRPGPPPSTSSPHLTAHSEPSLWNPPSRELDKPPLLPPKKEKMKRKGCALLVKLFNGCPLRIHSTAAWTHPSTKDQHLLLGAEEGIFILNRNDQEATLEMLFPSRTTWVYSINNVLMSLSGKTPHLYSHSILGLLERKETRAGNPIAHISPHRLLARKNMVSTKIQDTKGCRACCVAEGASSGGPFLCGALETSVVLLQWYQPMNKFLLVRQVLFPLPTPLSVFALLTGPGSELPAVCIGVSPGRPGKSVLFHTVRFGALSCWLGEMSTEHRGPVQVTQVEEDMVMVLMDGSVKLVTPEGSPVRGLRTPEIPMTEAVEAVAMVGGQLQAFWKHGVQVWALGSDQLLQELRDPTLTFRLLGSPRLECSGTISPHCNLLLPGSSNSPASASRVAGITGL
Protocol Text: FRET Assay for HPK1 (MAP4K1): one step binding assay, displacement of labeled tracer
Experimental Setup: 10 μM compound; FRET ratio 665/620, percent of control
Structures can show the parent of a compound that is named as a salt.
Binarize inhibition at 10 µM at 80%; below is t, at or above is f.

> print(dat)
                                    compound                          target.or.system  class.assignment
 1  C/C(Nc1cnn(C(C)(C)C#N)c1)=C1/C(=O)Nc2cnc(-c3c(C)noc3C)cc21  HPK1 (MAP4K1) (Homo sapiens, UniProt Q92918)                 f
 2  COc1cccc(F)c1-c1cc2c(cn1)NC(=O)/C2=C(/C)Nc1cnn([C@H](C)C#N)c1  HPK1 (MAP4K1) (Homo sapiens, UniProt Q92918)                 t
 3  C/C(Nc1ccn(C2CCN(C3COC3)CC2)n1)=C1/C(=O)Nc2cnc(-c3cnccc3C)cc21  HPK1 (MAP4K1) (Homo sapiens, UniProt Q92918)                 t
 4  COc1cccc(F)c1-c1cc2c(cn1)NC(=O)/C2=C(/C)Nc1ccc(N2CCNCC2)cn1  HPK1 (MAP4K1) (Homo sapiens, UniProt Q92918)                 f
 5  C/C(Nc1cn(C)nc1C)=C1/C(=O)Nc2cnc(-c3cnccc3C)cc21  HPK1 (MAP4K1) (Homo sapiens, UniProt Q92918)                 f
 6  COCCn1cc(N/C(C)=C2\C(=O)Nc3cnc(-c4cnccc4C)cc32)cn1  HPK1 (MAP4K1) (Homo sapiens, UniProt Q92918)                 t
 7  COc1cccc(F)c1-c1cc2c(cn1)NC(=O)/C2=C(/C)NC1CCNCC1 [Example 72, trihydrochloride]  HPK1 (MAP4K1) (Homo sapiens, UniProt Q92918)                 t
 8  CC(=O)N1CCC(n2ccc(N/C(C)=C3\C(=O)Nc4cnc(-c5cnccc5C)cc43)n2)CC1  HPK1 (MAP4K1) (Homo sapiens, UniProt Q92918)                 f
 9  C/C(Nc1cc(C)n(C(F)F)n1)=C1/C(=O)Nc2cnc(-c3cnccc3C)cc21  HPK1 (MAP4K1) (Homo sapiens, UniProt Q92918)                 t
10  C/C(Nc1cnn(CC2(O)CC2)c1)=C1/C(=O)Nc2cnc(-c3cnccc3C)cc21  HPK1 (MAP4K1) (Homo sapiens, UniProt Q92918)                 t
11  C/C(Nc1cc2n(n1)CCOC2)=C1/C(=O)Nc2cnc(-c3c(C)cccc3F)cc21  HPK1 (MAP4K1) (Homo sapiens, UniProt Q92918)                 t
12  C/C(Nc1cn[nH]c1)=C1/C(=O)Nc2cnc(-c3cnccc3C)cc21  HPK1 (MAP4K1) (Homo sapiens, UniProt Q92918)                 f
13  C/C(Nc1ccn(C)n1)=C1/C(=O)Nc2ccc(-c3cnccc3C)nc21  HPK1 (MAP4K1) (Homo sapiens, UniProt Q92918)                 f
14  COc1cccc(F)c1-c1cc2c(cc1F)NC(=O)/C2=C(/C)Nc1cnn(C)c1  HPK1 (MAP4K1) (Homo sapiens, UniProt Q92918)                 f
15  CC(=O)N1CCN(c2ccc(N/C(C)=C3\C(=O)Nc4cnc(-c5cnccc5C)cc43)cn2)CC1  HPK1 (MAP4K1) (Homo sapiens, UniProt Q92918)                 t
